# experimental protocol: recombinant UMI read abundance after kanamycin selection (control-corrected) (log10(CPM+1)); higher = more efficient recombination; extreme values may be limits of the assay; sequences stand for … in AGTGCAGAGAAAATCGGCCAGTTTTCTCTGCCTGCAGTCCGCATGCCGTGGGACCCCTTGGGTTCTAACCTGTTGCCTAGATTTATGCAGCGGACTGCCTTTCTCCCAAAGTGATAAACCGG…AGGTTGGTTTCACT; site = the 11-nt donor;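 note: IS621 bridge recombinase in Escherichia coli cells against a fixed T5 target plasmid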
Could you label it T if measured recombinant UMI read abundance (log10) is 0.03 or higher, and F otherwise?

ACTGGATCATGGACCGGTTTTCCCGGTAATCCGTATTTGAG (site ACTGGATCTCT) = T
GAACTTGCATGGACCGGTTTTCCCGGTAATCCGTATTTGAC (site CTTACCACTAA) = F
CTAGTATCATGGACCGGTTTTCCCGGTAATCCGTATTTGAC (site TTAGTCTCTGT) = F

**Q:** Is the recorded value of recombinant UMI read abundance (log10) equal to or greater than 0.03 for this sequence? CATAATACATGGACCGGTTTTCCCGGTAATCCGTATTTGGC (site CGTAATACTGC)
**A:** F

**Q:** Is the recorded value of recombinant UMI read abundance (log10) equal to or greater than 0.03 for this sequence? TTCAAGACATGGACCGGTTTTCCCGGTAATCCGTATTTGCC (site TTCAAGACTGG)
**A:** F

**Q:** Is the recorded value of recombinant UMI read abundance (log10) equal to or greater than 0.03 for this sequence? GGGGTAGCATGGACCGGTTTTCCCGGTAATCCGTATTTGTC (site GGGGTAGCTGA)
**A:** T

**Q:** Is the recorded value of recombinant UMI read abundance (log10) equal to or greater than 0.03 for this sequence? CGTGGACCATGGACCGGTTTTCCCGGTAATCCGTATTTGGG (site CGAGGACCTCC)
**A:** F

**Q:** Is the recorded value of recombinant UMI read abundance (log10) equal to or greater than 0.03 for this sequence? ACATGAACATGGACCGGTTTTCCCGGTAATCCGTATTTGAG (site ACATGAACTCT)
**A:** T

**Q:** Is the recorded value of recombinant UMI read abundance (log10) equal to or greater than 0.03 for this sequence? CGATCTTCATGGACCGGTTTTCCCGGTAATCCGTATTTGTT (site CGATCATCTAG)
**A:** F

**Q:** Is the recorded value of recombinant UMI read abundance (log10) equal to or greater than 0.03 for this sequence? CCACTATCATGGACCGGTTTTCCCGGTAATCCGTATTTGAC (site CCACTATCTGT)
**A:** T

**Q:** Is the recorded value of recombinant UMI read abundance (log10) equal to or greater than 0.03 for this sequence? CCCAACACATGGACCGGTTTTCCCGGTAATCCGTATTTGTA (site CCCGACACTTA)
**A:** F

**Q:** Is the recorded value of recombinant UMI read abundance (log10) equal to or greater than 0.03 for this sequence? CTGCTTCCATGGACCGGTTTTCCCGGTAATCCGTATTTGGT (site CTGCTTCCTAC)
**A:** T

**Q:** Is the recorded value of recombinant UMI read abundance (log10) equal to or greater than 0.03 for this sequence? AATGTATCATGGACCGGTTTTCCCGGTAATCCGTATTTGAC (site AATGTATCTGT)
**A:** T

**Q:** Is the recorded value of recombinant UMI read abundance (log10) equal to or greater than 0.03 for this sequence? GTTCATGCATGGACCGGTTTTCCCGGTAATCCGTATTTGGT (site GTCCATGCTAC)
**A:** T
